Consider the following compounds and their measured pIC50 readings.
target: WT HIV-1 RT (Human immunodeficiency virus type 1 group M subtype B, UniProt P04585); construct: purchased Roche; test: biochemical
Scale for pIC50: -log10 of concentration given in mol/L; no unit attached.

Recorded pIC50 for Cc1cc(C#N)cc(C)c1Oc1nc(Nc2ccc(C#N)cc2)nc(N)c1Br [ETR, etravirine] , please? 5.87

Further, for Cc1cc(/C=C/C#N)cc(C)c1Nc1ccnc(Nc2ccc(C#N)cc2)n1 [RPV, rilpivirine] ? 6.37

###

Consider the following compounds and their measured EC50 readings.
test system: HIV-1 Y188L; experiment: Anti-HIV-1 activity against Y188L mutant strain, MTT method in MT-4 cells; assay type: cell-based; conditions: Human immunodeficiency virus 1, MT4, read-out: EC50 Y188L
Answer with a number only, understood to be in nM.

Find EC50 (HIV-1 Y188L) for the entry O=C1Nc2ccc(Cl)cc2[C@@](C#CC2CC2)(C(F)(F)F)O1 [EFV, efavirenz] 250

Further, for Cc1cc(/C=C/C#N)cc(C)c1Oc1ccnc(Nc2ccc(N3CCN(S(C)(=O)=O)CC3)c(C#N)c2)n1 [Compound 18b1] ? 740

Further, for Cc1cc(C#N)cc(C)c1Oc1nc(Nc2ccc(C#N)cc2)nc(N)c1Br [ETR, etravirine] ? 25

Further, for Cc1cc(/C=C/C#N)cc(C)c1Oc1ccnc(Nc2ccc(CN3CCN(S(C)(=O)=O)CC3)cc2)n1 [BH-11c] ? 1320
